Experiment: Inhibition of Met-triggered cell scattering in HGF-stimulated MDCK cells preincubated for overnight before HGF challenge measured after 24 to 48 hrs
For each of the compounds below, state its pIC50.
pIC50 field: float, defined as -log10 of concentration (mol/L).

Output pIC50 of O=C(Cc1cc(C(F)(F)F)cc(C(F)(F)F)c1)N[C@H](Cc1ccccc1)C(=O)Nc1ccc(-c2cn3c(n2)sc2ccccc23)cc1 6.70

Output pIC50 of O=C(Cc1cc(C(F)(F)F)cc(C(F)(F)F)c1)NC(Cc1ccccc1)c1cn(-c2ccc(-c3cn4c(n3)sc3ccccc34)cc2)nn1 (centres undefined) 6.22

Output pIC50 of O=C(Cc1cc(C(F)(F)F)cc(C(F)(F)F)c1)N[C@@H](Cc1ccccc1)C(=O)Nc1ccc(-c2cn3c(n2)sc2ccccc23)cc1 6.70

Output pIC50 of Cc1[nH]c(/C=C2\C(=O)Nc3ccc(S(=O)(=O)N(C)c4cccc(Cl)c4)cc32)c(C)c1C(=O)N1CCN(C)CC1 6.70

FYI, the data here is from BindingDB's records for doi:10.1016/j.bmcl.2012.05.078.
